system: tau phosphorylation; assay: Inhibitory activity on tau phosphorylation in vivo (pS396 Western blot of cortex); parameters: species or system male CD-1 mice; conditions: 10 mg/kg p.o., cortex removed after 1 hour, pS396 antibody; ** means statistically significant
Measure Name: in vivo 10 mg/kg, % phosphorylation against vehicle (%)
Please give a number only; it is taken to be in %.

Molecule: Cn1c(N2CCOC(c3nc(-c4ccccc4)no3)C2)nc(-c2ccncn2)cc1=O (stereo not drawn)
System: tau phosphorylation
Measured Value: 92.12
//
Molecule: Cn1c(N2CCOC(c3ccc(-c4ccoc4)cc3)C2)nc(-c2ccncn2)cc1=O (stereo not drawn)
System: tau phosphorylation
Measured Value: 71.44
//
Molecule: Cn1ccnc1-c1ccc(C2CN(c3nc(-c4ccncn4)cc(=O)n3C)CCO2)cc1 (stereo not drawn)
System: tau phosphorylation
Measured Value: 71.21

# input for lookup
Entry under review: Cn1c(N2CCOC(c3noc(-c4ccccc4)n3)C2)nc(-c2ccncn2)cc1=O (stereo not drawn) . Reported in vivo 10 mg/kg, % phosphorylation against vehicle?
79.21

These data points were gathered from patent EP2078717A1.
